Tested on: large crabgrass (Digitaria sanguinalis, DIGSA)
Test: Pre-emerge greenhouse herbicide activity screening, phytotoxicity rating
Format: in vivo
Conditions: 125 g ai/ha, 14 days after application
In this section, each of the molecules is paired with its reported DIGSA phytotoxicity rating (0-100 scale).

>>> observedmeasurement("COc1ccc(Oc2cc(-n3c(=O)cc(C(F)(F)F)n(C)c3=S)c(F)cc2C#N)cc1")
95

Q: Find DIGSA phytotoxicity rating (0-100 scale) (large crabgrass (Digitaria sanguinalis, DIGSA)) for the entry Cn1c(C(F)(F)F)cc(=O)n(-c2cc(Oc3ccccc3)c(C#N)cc2F)c1=S
Result: 99

Q: Find DIGSA phytotoxicity rating (0-100 scale) (large crabgrass (Digitaria sanguinalis, DIGSA)) for the entry Cn1c(=S)n(C)c(=O)n(-c2cc(Oc3ncccn3)c(Cl)cc2F)c1=O
Result: 100

Q: Find DIGSA phytotoxicity rating (0-100 scale) (large crabgrass (Digitaria sanguinalis, DIGSA)) for the entry Cn1c(C(F)(F)F)cc(=O)n(-c2cc(Oc3ccccc3O)c(C#N)cc2F)c1=S
Result: 85
